The origin of these recorded values is paper PMC8727363.

TESTED_ON: POP isolated from rat brain (Rattus norvegicus)
Construct: the resulting POP preparation was a homogeneous monomer with molecular weight of 75 kDa
Sequence (O70196 whole entry): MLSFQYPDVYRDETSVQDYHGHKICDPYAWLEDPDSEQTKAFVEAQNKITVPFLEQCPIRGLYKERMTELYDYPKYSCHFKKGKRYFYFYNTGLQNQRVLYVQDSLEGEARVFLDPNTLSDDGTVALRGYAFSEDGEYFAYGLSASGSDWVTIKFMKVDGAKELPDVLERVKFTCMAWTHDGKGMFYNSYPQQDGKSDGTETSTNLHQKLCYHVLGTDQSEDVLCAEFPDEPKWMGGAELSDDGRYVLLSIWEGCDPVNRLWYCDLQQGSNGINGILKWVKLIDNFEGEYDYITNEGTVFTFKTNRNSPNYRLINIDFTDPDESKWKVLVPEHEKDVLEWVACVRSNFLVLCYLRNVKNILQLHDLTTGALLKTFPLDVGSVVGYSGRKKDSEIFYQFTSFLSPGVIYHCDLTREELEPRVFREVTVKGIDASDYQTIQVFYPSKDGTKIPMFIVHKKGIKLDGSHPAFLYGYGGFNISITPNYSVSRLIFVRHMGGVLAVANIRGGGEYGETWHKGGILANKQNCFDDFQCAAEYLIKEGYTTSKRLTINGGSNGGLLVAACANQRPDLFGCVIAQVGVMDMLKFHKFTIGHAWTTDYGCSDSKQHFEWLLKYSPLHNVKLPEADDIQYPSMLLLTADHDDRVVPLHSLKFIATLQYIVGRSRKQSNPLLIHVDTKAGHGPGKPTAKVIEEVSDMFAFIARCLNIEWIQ
ASSAY_TEXT: POP inhibition assay (release of AMC from Cbz-Ala-Pro-AMC)
ASSAY_CONDITIONS: substrate Cbz-Ala-Pro-AMC 20 μM, 30 min at 37°C, pH 7.5, read-out: IC50, POP inhibitory activity
Procedure: Briefly, rat brain homogenate was precipitated with ammonium sulfate, followed by ion exchange chromatography on DEAE-Sephadex A-50, gel chromatography on Sephadex G-75, and high-performance liquid chromatography on a MonoQ column using FPLC. […] Purified POP was concentrated by ultrafiltration and stored at −80°C. The reaction was initiated by addition of the substrate (20 μM) in a final reaction volume of 2 ml. […]
MEASURE_NAME: IC50 (nM)
Answers are plain numbers, in nM.

>>> df
                                chem_smiles                                 tested_on  reported_value
0  CC(C)(C)OC(=O)N[C@@H](Cc1c[nH]c2ccccc12)C(=O)N1CCC[C@H]1C#N  POP isolated from rat brain (Rattus norvegicus)               9

Consider the following items and state reported IC50 for each.
1. CSCC[C@H](NC(=O)OCc1ccccc1)C(=O)N1CCC[C@H]1C#N
2. CC(C)(C)OC(=O)NCC(=O)N1CCC[C@H]1C#N

# output
1. 2.1
2. 12
